Measured log2 fold change accompanies every entry in the list below.
Target: ZC3HC1 (UniProt Q86WB0)
Sequence (Q86WB0 whole entry, looked up): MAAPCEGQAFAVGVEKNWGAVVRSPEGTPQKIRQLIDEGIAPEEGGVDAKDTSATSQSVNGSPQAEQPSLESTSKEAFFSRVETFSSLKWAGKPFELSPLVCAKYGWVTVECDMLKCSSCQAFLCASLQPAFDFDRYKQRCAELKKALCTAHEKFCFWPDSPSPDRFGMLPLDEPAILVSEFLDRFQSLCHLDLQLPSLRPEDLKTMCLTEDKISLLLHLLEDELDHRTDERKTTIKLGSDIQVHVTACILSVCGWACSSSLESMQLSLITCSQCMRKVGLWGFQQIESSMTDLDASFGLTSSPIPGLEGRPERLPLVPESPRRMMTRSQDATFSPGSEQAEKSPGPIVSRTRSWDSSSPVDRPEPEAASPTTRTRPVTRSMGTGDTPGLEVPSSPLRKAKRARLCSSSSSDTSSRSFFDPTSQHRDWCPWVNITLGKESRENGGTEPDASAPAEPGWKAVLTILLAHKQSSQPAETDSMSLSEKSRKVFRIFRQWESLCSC
Experiment: log2 fold change, soluble protein after heating vs DMSO (PISA); higher = thermal stabilisation; K562 cells, 10 uM, 30 min; active = over 0.2 and 3.5 SD of the protein, either way, in both replicates (recomputed)
The full data set covers some 7,900 targets. This sample favours those with a hit. About 0.6% of all pairs of compound and target were hits.
Lab note: jot down the number only; don't add units.

Examples with their reported log2 fold change follow.
Cn1cc(-c2ccc3nnc(C(F)(F)c4ccc5ncccc5c4)n3n2)cn1; 0.038
CCCS(=O)(=O)Nc1ccc(F)c(C(=O)c2c[nH]c3ncc(-c4ccc(Cl)cc4)cc23)c1F [vemurafenib]; 0.09
NC(=O)Nc1cc(-c2cccc(F)c2)sc1C(=O)N[C@H]1CCCNC1; -0.016
COC(=O)N[C@@H](C)CNc1nccc(-c2cn(C(C)C)nc2-c2cc(Cl)cc(NS(C)(=O)=O)c2F)n1 [encorafenib]; 0.05
CS(=O)(=O)N1CCN(Cc2cc3nc(-c4cccc5[nH]ncc45)nc(N4CCOCC4)c3s2)CC1 [pictilisib]; -0.003

Look at this compound and give its reported log2 fold change. CNC(=O)c1ccc(Nc2ncc(C(F)(F)F)c(NCc3nccnc3N(C)S(C)(=O)=O)n2)cc1 [defactinib]
-0.227

Look at this compound and give its reported log2 fold change. CNCc1ccc(-c2[nH]c3cc(F)cc4c3c2CCNC4=O)cc1 [rucaparib]
-0.047

Look at this compound and give its reported log2 fold change. Cc1ccc(NC(=O)c2cccc(N(C)C)c2)cc1NC(=O)c1ccc(O)cc1
-0.209

Look at this compound and give its reported log2 fold change. CN1CC[C@H](c2c(O)cc(O)c3c(=O)cc(-c4ccccc4Cl)oc23)[C@H](O)C1 [alvocidib]
-0.318

Look at this compound and give its reported log2 fold change. Cc1cc(Nc2cc(N3CCN(C)CC3)nc(Sc3ccc(NC(=O)C4CC4)cc3)n2)n[nH]1 [tozasertib]
0.047

###

Target: ZADH2 (UniProt Q8N4Q0)
Sequence (Q8N4Q0 whole entry, looked up): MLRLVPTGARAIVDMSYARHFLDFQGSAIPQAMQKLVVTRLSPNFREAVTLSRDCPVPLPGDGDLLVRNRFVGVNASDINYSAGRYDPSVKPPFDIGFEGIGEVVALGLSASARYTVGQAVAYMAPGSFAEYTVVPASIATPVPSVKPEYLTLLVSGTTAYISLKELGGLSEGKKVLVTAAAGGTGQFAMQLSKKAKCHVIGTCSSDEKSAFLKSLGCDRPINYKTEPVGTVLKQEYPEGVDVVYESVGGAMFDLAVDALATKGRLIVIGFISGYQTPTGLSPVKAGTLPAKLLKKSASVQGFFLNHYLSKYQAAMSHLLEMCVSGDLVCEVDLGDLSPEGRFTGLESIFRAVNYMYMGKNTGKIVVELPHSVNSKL
Assay: log2 fold change, soluble protein after heating vs DMSO (PISA); higher = thermal stabilisation; K562 cells, 10 uM, 30 min; active = over 0.2 and 3.5 SD of the protein, either way, in both replicates (recomputed)
The full data set covers some 7,900 targets. This sample favours those with a hit. About 0.6% of all pairs of compound and target were hits.
readoutKind: log2 fold change
Lab note: jot down the number only; don't add units.

Examples with their reported log2 fold change follow.
COC(=O)[C@H](CCSC)NC(=O)c1ccc(NC[C@@H](N)CS)cc1-c1ccccc1; 0.052
CC(=O)c1cnc2ccc(-c3cc(Cl)c(O)c(Cl)c3)nc2c1N[C@H]1CC[C@H](CN(C)C)CC1; -0.131
CNCc1ccc(-c2[nH]c3cc(F)cc4c3c2CCNC4=O)cc1; -0.071
O=C1NC(=NCc2cccs2)S/C1=C\c1ccc2ncccc2c1; 0.042
CCCS(=O)(=O)Nc1ccc(F)c(C(=O)c2c[nH]c3ncc(Cl)cc23)c1F; -0.012
Cc1ccc2c(=O)c3ccccc3n(CCCN)c2c1C; 0.038
C[C@@H]1COCCN1c1cc(C2(S(C)(=O)=O)CC2)nc(-c2cccc3[nH]ccc23)n1; 0.22
COC(=O)N[C@@H](C)CNc1nccc(-c2cn(C(C)C)nc2-c2cc(Cl)cc(NS(C)(=O)=O)c2F)n1; 0.045
Nc1ccccc1NC(=O)c1ccc(CNC(=O)OCc2cccnc2)cc1; -0.04
CC1=C(C(=O)Nc2cc3cn[nH]c3cc2F)C(c2ccc(C(F)(F)F)cc2)CC(=O)N1 (stereo not drawn); -0.014

Look at this molecule and give its reported log2 fold change. CC[C@@H]1C(=O)N(C)c2cnc(Nc3ccc(C(=O)N[C@H]4CC[C@H](N5CCN(CC6CC6)CC5)CC4)cc3OC)nc2N1C(C)C
0.754

Look at this molecule and give its reported log2 fold change. C[C@H](Nc1ncnc2nc[nH]c12)c1cc2cccc(Cl)c2c(=O)n1-c1ccccc1
0.033

###

Biological target: ZDHHC6 (UniProt Q9H6R6)
Sequence (Q9H6R6 whole entry, looked up): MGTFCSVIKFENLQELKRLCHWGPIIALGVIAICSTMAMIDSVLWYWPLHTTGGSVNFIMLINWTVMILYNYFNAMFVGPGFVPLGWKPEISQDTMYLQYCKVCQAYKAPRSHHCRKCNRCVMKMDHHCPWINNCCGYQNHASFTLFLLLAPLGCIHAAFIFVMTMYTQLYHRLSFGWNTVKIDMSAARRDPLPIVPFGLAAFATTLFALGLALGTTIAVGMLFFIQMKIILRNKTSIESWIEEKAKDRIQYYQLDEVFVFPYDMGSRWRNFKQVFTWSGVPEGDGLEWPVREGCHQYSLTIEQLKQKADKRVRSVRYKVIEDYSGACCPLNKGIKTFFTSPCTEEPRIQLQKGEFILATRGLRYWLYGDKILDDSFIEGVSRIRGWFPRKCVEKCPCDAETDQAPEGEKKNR
Test: log2 fold change, soluble protein after heating vs DMSO (PISA); higher = thermal stabilisation; K562 cells, 10 uM, 30 min; active = over 0.2 and 3.5 SD of the protein, either way, in both replicates (recomputed)
Targets with a hit are over-represented here; the source holds about 7,900 in all. About 0.6% of all pairs of compound and target were hits.
readoutKind: log2 fold change
Lab note: jot down the number only; don't add units.

CC[C@H](C)[C@H](NC(=O)[C@H]([C@@H](C)CC)N(C)C(C)=O)C(=O)N[C@H](C(=O)N[C@@H](CC(C)C)C(=O)[C@@]1(C)CO1)[C@@H](C)O; -0.052
c1cc(OCCN2CCCCC2)cc(-c2n[nH]c3ccc(-c4nnc[nH]4)cc23)c1; -0.005
COc1cc2nc(-c3cc(F)ccc3O)nc(N[C@@H]3CNC[C@H]3C(C)(C)O)c2cc1OC; 0.018
CCCCN(Cc1ccc(C(=O)NO)cc1)C(=O)Nc1ccccc1; -0.06

Look at this compound and give its reported log2 fold change. CC[C@@H]1C(=O)N(C)c2cnc(Nc3ccc(C(=O)NC4CCN(C)CC4)cc3OC)nc2N1C1CCCC1
-0.114

Look at this compound and give its reported log2 fold change. Cn1cncc1[C@@](N)(c1ccc(Cl)cc1)c1ccc2c(c1)c(-c1cccc(Cl)c1)cc(=O)n2C
0.086

Look at this compound and give its reported log2 fold change. O=C1NC(=O)C(c2cnc3ccccn23)=C1c1cn2c3c(cc(F)cc13)CN(C(=O)N1CCCCC1)CC2
0.089

###

Molecular target: ZNF277 (UniProt Q9NRM2)
Sequence (Q9NRM2 whole entry, looked up): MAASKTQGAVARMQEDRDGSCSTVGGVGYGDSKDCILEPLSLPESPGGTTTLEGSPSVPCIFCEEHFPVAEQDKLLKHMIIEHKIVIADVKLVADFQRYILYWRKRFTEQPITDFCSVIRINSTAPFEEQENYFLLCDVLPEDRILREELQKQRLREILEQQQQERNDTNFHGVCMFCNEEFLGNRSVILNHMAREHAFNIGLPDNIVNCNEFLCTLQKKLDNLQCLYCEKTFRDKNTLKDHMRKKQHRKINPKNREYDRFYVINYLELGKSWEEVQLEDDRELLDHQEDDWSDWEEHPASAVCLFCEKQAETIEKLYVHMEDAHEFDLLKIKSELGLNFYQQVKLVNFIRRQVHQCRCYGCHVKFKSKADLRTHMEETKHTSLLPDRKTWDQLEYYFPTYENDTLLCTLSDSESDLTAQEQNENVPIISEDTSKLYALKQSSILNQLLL
Assay: log2 fold change, soluble protein after heating vs DMSO (PISA); higher = thermal stabilisation; K562 cells, 10 uM, 30 min; active = over 0.2 and 3.5 SD of the protein, either way, in both replicates (recomputed)
Targets with a hit are over-represented here; the source holds about 7,900 in all. About 0.6% of all pairs of compound and target were hits.
Where log2 fold change equals or exceeds 0, the correct label is y; where it does not, the label is n.

CCCS(=O)(=O)Nc1ccc(F)c(C(=O)c2c[nH]c3ncc(Cl)cc23)c1F; y
O=C(Nc1cccc(Nc2ncc(Br)c(NCCc3cnc[nH]3)n2)c1)N1CCCC1; y
CC(C)c1cnn2c(NCc3ccccc3)cc(NCCCCCCN)nc12; n

Next item in the queue.
Check if log2 fold change >= 0 (inclusive). Item: Cc1ccc(-n2nc(C(C)(C)C)cc2NC(=O)Nc2ccc(OCCN3CCOCC3)c3ccccc23)cc1
y

###

Biological target: ZNF217 (UniProt O75362)
Sequence (O75362 whole entry, looked up): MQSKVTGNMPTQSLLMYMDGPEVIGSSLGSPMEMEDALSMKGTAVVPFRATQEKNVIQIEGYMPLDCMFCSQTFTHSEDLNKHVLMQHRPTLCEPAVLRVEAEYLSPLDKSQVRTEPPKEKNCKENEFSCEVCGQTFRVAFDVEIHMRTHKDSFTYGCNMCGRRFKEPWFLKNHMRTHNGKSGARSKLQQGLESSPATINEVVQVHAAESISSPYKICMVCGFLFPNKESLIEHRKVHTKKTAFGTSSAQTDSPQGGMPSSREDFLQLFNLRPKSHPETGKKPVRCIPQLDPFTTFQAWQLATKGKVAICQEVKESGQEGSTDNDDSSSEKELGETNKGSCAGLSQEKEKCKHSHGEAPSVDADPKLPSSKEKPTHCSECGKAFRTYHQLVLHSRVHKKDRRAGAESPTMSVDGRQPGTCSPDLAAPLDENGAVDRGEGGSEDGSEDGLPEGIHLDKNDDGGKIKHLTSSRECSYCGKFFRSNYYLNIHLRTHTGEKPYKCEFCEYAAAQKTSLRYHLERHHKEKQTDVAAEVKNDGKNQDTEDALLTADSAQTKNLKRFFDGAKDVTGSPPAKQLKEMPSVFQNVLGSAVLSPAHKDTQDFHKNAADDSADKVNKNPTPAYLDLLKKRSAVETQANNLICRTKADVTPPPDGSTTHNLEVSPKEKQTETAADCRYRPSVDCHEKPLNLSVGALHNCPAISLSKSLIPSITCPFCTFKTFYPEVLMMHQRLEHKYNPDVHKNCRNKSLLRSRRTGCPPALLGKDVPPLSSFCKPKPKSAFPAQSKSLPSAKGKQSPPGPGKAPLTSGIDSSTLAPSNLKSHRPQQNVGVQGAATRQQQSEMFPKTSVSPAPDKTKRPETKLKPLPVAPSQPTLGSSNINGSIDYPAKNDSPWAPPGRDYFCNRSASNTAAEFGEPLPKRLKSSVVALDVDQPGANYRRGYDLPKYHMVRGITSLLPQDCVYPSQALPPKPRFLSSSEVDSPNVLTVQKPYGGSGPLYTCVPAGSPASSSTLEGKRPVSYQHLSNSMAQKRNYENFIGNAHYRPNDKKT
Test: log2 fold change, soluble protein after heating vs DMSO (PISA); higher = thermal stabilisation; K562 cells, 10 uM, 30 min; active = over 0.2 and 3.5 SD of the protein, either way, in both replicates (recomputed)
Targets with a hit are over-represented here; the source holds about 7,900 in all. About 0.6% of all pairs of compound and target were hits.
Where log2 fold change equals or exceeds -0.03, the correct label is Met; where it does not, the label is Not met.

Cc1nc(Nc2ncc(C(=O)Nc3c(C)cccc3Cl)s2)cc(N2CCN(CCO)CC2)n1; Not met

Check if log2 fold change >= -0.03 (inclusive). Item: C[C@@H]1COCCN1c1cc(C2(S(C)(=O)=O)CC2)nc(-c2cccc3[nH]ccc23)n1
Not met

Check if log2 fold change >= -0.03 (inclusive). Item: C[C@@H](Oc1cc(-c2cnn(C3CCNCC3)c2)cnc1N)c1c(Cl)ccc(F)c1Cl
Not met

Check if log2 fold change >= -0.03 (inclusive). Item: CCN(CC)Cc1ccc2cc(COC(=O)Nc3ccc(C(=O)NO)cc3)ccc2c1
Met

Check if log2 fold change >= -0.03 (inclusive). Item: Cc1ccc(-n2nc(C(C)(C)C)cc2NC(=O)Nc2ccc(OCCN3CCOCC3)c3ccccc23)cc1
Met

Check if log2 fold change >= -0.03 (inclusive). Item: NC(=O)c1ccc2nc(-c3ccc(Oc4ccc(Cl)cc4)cc3)[nH]c2c1
Met

###

Molecular target: ZNF622 (UniProt Q969S3)
Sequence (Q969S3 whole entry, looked up): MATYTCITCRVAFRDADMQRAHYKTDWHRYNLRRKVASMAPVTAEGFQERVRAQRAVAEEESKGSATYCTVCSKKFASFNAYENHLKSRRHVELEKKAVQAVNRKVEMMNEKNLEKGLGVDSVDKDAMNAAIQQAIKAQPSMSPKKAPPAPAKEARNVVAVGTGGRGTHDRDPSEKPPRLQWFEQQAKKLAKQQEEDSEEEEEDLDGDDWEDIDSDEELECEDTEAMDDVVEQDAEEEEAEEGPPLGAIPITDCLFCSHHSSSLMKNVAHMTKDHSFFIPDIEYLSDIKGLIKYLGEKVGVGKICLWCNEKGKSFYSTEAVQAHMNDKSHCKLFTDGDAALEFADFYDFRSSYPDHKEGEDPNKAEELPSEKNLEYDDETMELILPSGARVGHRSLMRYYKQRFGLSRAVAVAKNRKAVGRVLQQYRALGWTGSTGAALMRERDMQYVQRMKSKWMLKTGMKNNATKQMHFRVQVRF
Assay: log2 fold change, soluble protein after heating vs DMSO (PISA); higher = thermal stabilisation; K562 cells, 10 uM, 30 min; active = over 0.2 and 3.5 SD of the protein, either way, in both replicates (recomputed)
Targets with a hit are over-represented here; the source holds about 7,900 in all. About 0.6% of all pairs of compound and target were hits.
readoutKind: log2 fold change
Lab note: jot down the number only; don't add units.

Examples with their reported log2 fold change follow.
CC[C@@H]1C(=O)N(C)c2cnc(Nc3ccc(C(=O)N[C@H]4CC[C@H](N5CCN(CC6CC6)CC5)CC4)cc3OC)nc2N1C(C)C [volasertib]; 0.138
CC[C@@H]1C(=O)N(C)c2cnc(Nc3ccc(C(=O)NC4CCN(C)CC4)cc3OC)nc2N1C1CCCC1; 0.069
COc1cc(C(=O)O)ccc1NC(=O)[C@@H]1N[C@@H](CC(C)(C)C)[C@](C#N)(c2ccc(Cl)cc2F)[C@H]1c1cccc(Cl)c1F [idasanutlin]; -0.031
O=C(O)c1ccc2c(c1)nc(Nc1cccc(Cl)c1)c1ccncc12 [silmitasertib]; -0.058

Look at this compound and give its reported log2 fold change. NCC(=O)Nc1ccc(-n2nc(C(F)(F)F)cc2-c2ccc3c(ccc4ccccc43)c2)cc1
-0.016

Look at this compound and give its reported log2 fold change. CCCc1cc(C)[nH]c(=O)c1CNC(=O)c1cc(-c2ccnc(N3CCN(C)CC3)c2)cc2c1cnn2C(C)C
-0.01

Look at this compound and give its reported log2 fold change. Fc1ccc(Cl)cc1-c1nc(Nc2ccncc2)c2nccnc2n1
0.038

Look at this compound and give its reported log2 fold change. COc1cccc2cc(-c3nc([C@H]4CC[C@H](C(=O)O)CC4)n4ncnc(N)c34)[nH]c12
0.01

Look at this compound and give its reported log2 fold change. COc1cc2ncnc(Nc3ccc(F)c(Cl)c3)c2cc1OCCCN1CCOCC1 [gefitinib]
0
